This collection of values is drawn from the supplement of paper PMC10307832.

System: HCC-827
EXPERIMENT_DESCRIPTION: relative viability (nuclei count vs DMSO), 5 days (fraction); higher = more cells survive
CONDITION_DESCRIPTION: first compound 0.253 µM
Please respond with reported relative viability for every item in the list.
Give bare numbers.

Answered examples (4):
>  <COMPOUND>
O=c1[nH]c2ccccc2n1C1CCN(CCCC(c2ccc(F)cc2)c2ccc(F)cc2)CC1 [Pimozide] + O=C(CCCCCCC(=O)Nc1ccccc1)NO [Vorinostat] (partner 1 µM)

>  <ASSAYED_SYSTEM>
HCC-827

>  <relative viability>
0.791

$$$$
>  <COMPOUND>
O=c1[nH]c2ccccc2n1C1CCN(CCCC(c2ccc(F)cc2)c2ccc(F)cc2)CC1 [Pimozide] + Nc1ncn([C@H]2C[C@H](O)[C@@H](CO)O2)c(=O)n1 [Decitabine] (partner 2 µM)

>  <ASSAYED_SYSTEM>
HCC-827

>  <relative viability>
0.284

$$$$
>  <COMPOUND>
O=c1[nH]c2ccccc2n1C1CCN(CCCC(c2ccc(F)cc2)c2ccc(F)cc2)CC1 [Pimozide] + Cc1nc(Nc2ncc(C(=O)Nc3c(C)cccc3Cl)s2)cc(N2CCN(CCO)CC2)n1 [Dasatinib] (partner 0.075 µM)

>  <ASSAYED_SYSTEM>
HCC-827

>  <relative viability>
0.265

$$$$
>  <COMPOUND>
Cc1cnc(-c2cnc(NCCNc3ccc(C#N)cn3)nc2-c2ccc(Cl)cc2Cl)[nH]1 + Nc1ncn([C@H]2C[C@H](O)[C@@H](CO)O2)c(=O)n1 [Decitabine] (partner 2 µM)

>  <ASSAYED_SYSTEM>
HCC-827

>  <relative viability>
0.299

$$$$

Now for another entry.
Please tell me: relative viability of O=c1[nH]c2ccccc2n1C1CCN(CCCC(c2ccc(F)cc2)c2ccc(F)cc2)CC1 [Pimozide] + C[C@@H](Oc1cc(-c2cnn(C3CCNCC3)c2)cnc1N)c1c(Cl)ccc(F)c1Cl [Crizotinib] (partner 1 µM) , system HCC-827?
0.887

---

Please respond with reported relative viability for every item in the list.
Test system: HOP-62
EXPERIMENT_DESCRIPTION: relative viability (nuclei count vs DMSO), 5 days (fraction); higher = more cells survive
CONDITION_DESCRIPTION: first compound 0.02 µM
One number for each entry.

Answered examples (2):
>  <MOLECULE>
CC(=O)O[C@@]12CO[C@@H]1C[C@H](O)[C@@]1(C)C(=O)[C@H](O)C3=C(C)[C@@H](OC(=O)[C@H](O)[C@@H](NC(=O)OC(C)(C)C)c4ccccc4)C[C@@](O)([C@@H](OC(=O)c4ccccc4)[C@H]21)C3(C)C [Docetaxel] + O=C(c1cc(Cc2n[nH]c(=O)c3ccccc23)ccc1F)N1CCN(C(=O)C2CC2)CC1 [Olaparib] (partner 8 µM)

>  <ASSAYED_SYSTEM>
HOP-62

>  <relative viability>
0.12

$$$$
>  <MOLECULE>
CC(=O)O[C@@]12CO[C@@H]1C[C@H](O)[C@@]1(C)C(=O)[C@H](O)C3=C(C)[C@@H](OC(=O)[C@H](O)[C@@H](NC(=O)OC(C)(C)C)c4ccccc4)C[C@@](O)([C@@H](OC(=O)c4ccccc4)[C@H]21)C3(C)C [Docetaxel] + CS(=O)(=O)N1CCN(Cc2cc3nc(-c4cccc5[nH]ncc45)nc(N4CCOCC4)c3s2)CC1 [Pictilisib] (partner 1 µM)

>  <ASSAYED_SYSTEM>
HOP-62

>  <relative viability>
0.101

$$$$

Now for another entry.
Looking for the measured relative viability of CC(=O)O[C@@]12CO[C@@H]1C[C@H](O)[C@@]1(C)C(=O)[C@H](O)C3=C(C)[C@@H](OC(=O)[C@H](O)[C@@H](NC(=O)OC(C)(C)C)c4ccccc4)C[C@@](O)([C@@H](OC(=O)c4ccccc4)[C@H]21)C3(C)C [Docetaxel] + CC1(C)CCC(c2ccc(Cl)cc2)=C(CN2CCN(c3ccc(C(=O)NS(=O)(=O)c4ccc(N[C@H](CCN5CCOCC5)CSc5ccccc5)c(S(=O)(=O)C(F)(F)F)c4)cc3)CC2)C1 [Navitoclax] (partner 0.5 µM) , can you help?
0.0795

---

Tested on: NCI-H2405
EXPERIMENT_DESCRIPTION: relative viability (nuclei count vs DMSO), 5 days (fraction); higher = more cells survive
CONDITION_DESCRIPTION: first compound 0.000632 µM
Please respond with reported relative viability for every item in the list.
Answers are plain numbers.

Answered examples (6):
>  <MOLECULE>
CC(=O)O[C@@]12CO[C@@H]1C[C@H](O)[C@@]1(C)C(=O)[C@H](O)C3=C(C)[C@@H](OC(=O)[C@H](O)[C@@H](NC(=O)OC(C)(C)C)c4ccccc4)C[C@@](O)([C@@H](OC(=O)c4ccccc4)[C@H]21)C3(C)C [Docetaxel] + COc1cccc2cc(-c3nc([C@H]4CC[C@H](C(=O)O)CC4)n4ncnc(N)c34)[nH]c12 [OSI-027] (partner 0.5 µM)

>  <ASSAYED_SYSTEM>
NCI-H2405

>  <ATTRIBUTE_MEASURED>
relative viability

>  <REPORTED_MEASUREMENT>
0.628

$$$$
>  <MOLECULE>
CC(=O)O[C@@]12CO[C@@H]1C[C@H](O)[C@@]1(C)C(=O)[C@H](O)C3=C(C)[C@@H](OC(=O)[C@H](O)[C@@H](NC(=O)OC(C)(C)C)c4ccccc4)C[C@@](O)([C@@H](OC(=O)c4ccccc4)[C@H]21)C3(C)C [Docetaxel] + Cc1cc(Nc2cc(N3CCN(C)CC3)nc(Sc3ccc(NC(=O)C4CC4)cc3)n2)n[nH]1 [Tozasertib] (partner 0.1 µM)

>  <ASSAYED_SYSTEM>
NCI-H2405

>  <ATTRIBUTE_MEASURED>
relative viability

>  <REPORTED_MEASUREMENT>
0.556

$$$$
>  <MOLECULE>
CC(=O)O[C@@]12CO[C@@H]1C[C@H](O)[C@@]1(C)C(=O)[C@H](O)C3=C(C)[C@@H](OC(=O)[C@H](O)[C@@H](NC(=O)OC(C)(C)C)c4ccccc4)C[C@@](O)([C@@H](OC(=O)c4ccccc4)[C@H]21)C3(C)C [Docetaxel] + Cc1nc(NC(=O)N2CCC[C@H]2C(N)=O)sc1-c1ccnc(C(C)(C)C(F)(F)F)c1 [Alpelisib] (partner 2 µM)

>  <ASSAYED_SYSTEM>
NCI-H2405

>  <ATTRIBUTE_MEASURED>
relative viability

>  <REPORTED_MEASUREMENT>
0.677

$$$$
>  <MOLECULE>
CC(=O)O[C@@]12CO[C@@H]1C[C@H](O)[C@@]1(C)C(=O)[C@H](O)C3=C(C)[C@@H](OC(=O)[C@H](O)[C@@H](NC(=O)OC(C)(C)C)c4ccccc4)C[C@@](O)([C@@H](OC(=O)c4ccccc4)[C@H]21)C3(C)C [Docetaxel] + N=C(N)NC(=N)NCCc1ccccc1 [Phenformin] (partner 250 µM)

>  <ASSAYED_SYSTEM>
NCI-H2405

>  <ATTRIBUTE_MEASURED>
relative viability

>  <REPORTED_MEASUREMENT>
0.419

$$$$
>  <MOLECULE>
CC(=O)O[C@@]12CO[C@@H]1C[C@H](O)[C@@]1(C)C(=O)[C@H](O)C3=C(C)[C@@H](OC(=O)[C@H](O)[C@@H](NC(=O)OC(C)(C)C)c4ccccc4)C[C@@](O)([C@@H](OC(=O)c4ccccc4)[C@H]21)C3(C)C [Docetaxel] + CS(=O)(=O)N1CCN(Cc2cc3nc(-c4cccc5[nH]ncc45)nc(N4CCOCC4)c3s2)CC1 [Pictilisib] (partner 1 µM)

>  <ASSAYED_SYSTEM>
NCI-H2405

>  <ATTRIBUTE_MEASURED>
relative viability

>  <REPORTED_MEASUREMENT>
0.429

$$$$
>  <MOLECULE>
CC(=O)O[C@@]12CO[C@@H]1C[C@H](O)[C@@]1(C)C(=O)[C@H](O)C3=C(C)[C@@H](OC(=O)[C@H](O)[C@@H](NC(=O)OC(C)(C)C)c4ccccc4)C[C@@](O)([C@@H](OC(=O)c4ccccc4)[C@H]21)C3(C)C [Docetaxel] + NC(=O)Nc1cc(-c2cccc(F)c2)sc1C(=O)N[C@H]1CCCNC1 [AZD7762] (partner 0.2 µM)

>  <ASSAYED_SYSTEM>
NCI-H2405

>  <ATTRIBUTE_MEASURED>
relative viability

>  <REPORTED_MEASUREMENT>
0.582

$$$$

Now for another entry.
Looking for the measured relative viability of CC(=O)O[C@@]12CO[C@@H]1C[C@H](O)[C@@]1(C)C(=O)[C@H](O)C3=C(C)[C@@H](OC(=O)[C@H](O)[C@@H](NC(=O)OC(C)(C)C)c4ccccc4)C[C@@](O)([C@@H](OC(=O)c4ccccc4)[C@H]21)C3(C)C [Docetaxel] + Cc1nc(Nc2ncc(C(=O)Nc3c(C)cccc3Cl)s2)cc(N2CCN(CCO)CC2)n1 [Dasatinib] (partner 0.075 µM) , can you help?
0.178
